Target: YAP1-TEAD4 (Homo sapiens, UniProt Q15561)
Sequence (P46937 whole entry, the tested form may be a part): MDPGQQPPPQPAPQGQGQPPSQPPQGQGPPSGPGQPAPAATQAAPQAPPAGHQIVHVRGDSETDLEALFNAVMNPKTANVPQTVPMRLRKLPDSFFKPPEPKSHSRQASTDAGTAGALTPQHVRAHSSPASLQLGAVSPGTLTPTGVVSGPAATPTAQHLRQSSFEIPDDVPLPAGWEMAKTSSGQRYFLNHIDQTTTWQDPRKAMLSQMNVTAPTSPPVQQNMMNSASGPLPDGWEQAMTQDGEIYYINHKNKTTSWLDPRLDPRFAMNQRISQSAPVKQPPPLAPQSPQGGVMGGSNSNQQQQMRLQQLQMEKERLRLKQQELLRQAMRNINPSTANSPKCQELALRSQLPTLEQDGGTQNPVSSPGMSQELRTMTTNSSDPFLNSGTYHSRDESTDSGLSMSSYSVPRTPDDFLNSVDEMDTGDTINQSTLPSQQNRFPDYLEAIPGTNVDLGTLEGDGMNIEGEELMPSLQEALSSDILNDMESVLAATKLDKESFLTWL
Sequence (Q15561 whole entry, the tested form may be a part): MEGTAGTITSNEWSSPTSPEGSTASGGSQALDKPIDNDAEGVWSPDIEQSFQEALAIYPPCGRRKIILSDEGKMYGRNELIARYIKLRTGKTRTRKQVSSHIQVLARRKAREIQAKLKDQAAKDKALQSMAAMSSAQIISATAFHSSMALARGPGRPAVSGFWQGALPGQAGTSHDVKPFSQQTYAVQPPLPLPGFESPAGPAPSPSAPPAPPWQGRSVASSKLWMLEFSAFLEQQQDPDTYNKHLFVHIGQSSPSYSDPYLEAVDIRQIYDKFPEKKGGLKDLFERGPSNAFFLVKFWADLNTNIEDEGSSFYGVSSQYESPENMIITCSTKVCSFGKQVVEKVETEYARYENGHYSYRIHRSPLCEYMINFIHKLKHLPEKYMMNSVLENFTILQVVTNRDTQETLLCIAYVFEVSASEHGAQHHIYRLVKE
Assay: Inhibition of GST-tagged TEAD4 (217 to 434 residues) (unknown origin) expressed in Escherichia coli BL21 (DE3) cells/FAM-labelled YAP1 (60 to 99 residues)(unknown origin) protein-protein interaction preincubated for 24 hrs at 4 degree C with TEAD4 followed by fluorescent labelled YAP1 addition by fluorescence polarization assay
endpoint-name: pIC50
pIC50 is a log-scale quantity: -log10 of the concentration expressed in molar.

Req: Would you kindly share the measured pIC50 for Cc1ccc(C2CC(c3cccs3)=NN2C(=O)CCl)cc1 (stereo unspecified) ?
Resp: 5.42

Req: Would you kindly share the measured pIC50 for COc1ccc(C(C(=O)NC2CCCCCC2)N(Cc2ccccc2)C(=O)CCl)cc1 (stereo unspecified) ?
Resp: 5.13

Req: Would you kindly share the measured pIC50 for COc1ccc(C(C(=O)NCCc2ccccc2)N(Cc2cccs2)C(=O)CCl)cc1 (stereo unspecified) ?
Resp: 4.98

Req: Would you kindly share the measured pIC50 for O=C(CCl)N1N=C(c2ccc(Br)cc2)CC1c1ccc(F)cc1 (stereo unspecified) ?
Resp: 5.82

Req: Would you kindly share the measured pIC50 for COc1ccc(C2=NN(C(=O)CCl)C(c3nc4ccccc4[nH]3)C2)cc1 (stereo unspecified) ?
Resp: 5.24

----------
Molecular target: YAP1-TEAD4 (Homo sapiens) (UniProt P46937+Q15561)
Assay: Covalent inhibition of GST-tagged TEAD4 (217 to 434 residues) (unknown origin) expressed in Escherichia coli BL21 (DE3) cells/FAM-labelled YAP1 (60 to 99 residues)(unknown origin) protein-protein interaction assessed as protein-compound adduct formation at 100 uM incubated for 24 hrs at 4 degree C followed by mass spectrometry analysis
endpoint-name: percent protein-compound adduct formation (%)
Reply numerically in %, unit not repeated.

Req: Test system YAP1-TEAD4 (Homo sapiens) (UniProt P46937+Q15561); read-out percent protein-compound adduct formation; what value for `CCS(=O)(=O)Oc1ccc(CN(Cc2ccc(F)cc2)C(=O)CCl)cc1` ?
Resp: 46

Req: Test system YAP1-TEAD4 (Homo sapiens) (UniProt P46937+Q15561); read-out percent protein-compound adduct formation; what value for `Cc1ccc(S(=O)(=O)N2CCN(C(=O)CCl)C2)cc1` ?
Resp: 75

Req: Test system YAP1-TEAD4 (Homo sapiens) (UniProt P46937+Q15561); read-out percent protein-compound adduct formation; what value for O=C(CCl)N1N=C(c2ccc(Cl)cc2)CC1c1ccco1 (stereo unspecified) ?
Resp: 64

Req: Test system YAP1-TEAD4 (Homo sapiens) (UniProt P46937+Q15561); read-out percent protein-compound adduct formation; what value for COc1ccc(CN(C(=O)CCl)C(C(=O)NC2CCCCC2)c2cccs2)cc1 (stereo unspecified) ?
Resp: 12

Req: Test system YAP1-TEAD4 (Homo sapiens) (UniProt P46937+Q15561); read-out percent protein-compound adduct formation; what value for O=C(CCl)N1N=C2/C(=C/c3ccco3)CCCC2C1c1ccco1 (stereo unspecified) ?
Resp: 32

Req: Test system YAP1-TEAD4 (Homo sapiens) (UniProt P46937+Q15561); read-out percent protein-compound adduct formation; what value for O=C(CCl)N1N=C(c2ccc(Br)cc2)CC1c1ccc(F)cc1 (stereo unspecified) ?
Resp: 27

----------
Biological target: YAP1-TEAD4 (Homo sapiens) (UniProt P46937+Q15561)
Assay: Inhibition of GST-tagged TEAD4 (217 to 434 residues) (unknown origin) expressed in Escherichia coli BL21 (DE3) cells/FAM-labelled YAP1 (60 to 99 residues)(unknown origin) protein-protein interaction assessed as maximum inhibition at 50 uM preincubated for 24 hrs at 4 degree C with TEAD4 followed by fluorescent labelled YAP1 addition by fluorescence polarization assay
Label 1 when Imax >= 50%; otherwise 0.

Req: Reported Imax reaches at least 50% for COc1ccc(C(C(=O)NC2CCCCCC2)N(Cc2ccc(C)cc2)C(=O)CCl)cc1 (configuration not stated) ?
Resp: 0

Req: Reported Imax reaches at least 50% for COc1ccc(CN(C(=O)CCl)C(C(=O)NC2CCCCC2)c2cccs2)cc1 (configuration not stated) ?
Resp: 1

Req: Reported Imax reaches at least 50% for `Cc1ccc(S(=O)(=O)N2CCN(C(=O)CCl)CC2)cc1C` ?
Resp: 0

Req: Reported Imax reaches at least 50% for O=C(CCl)N1N=C(c2ccc(Cl)cc2)CC1c1ccco1 (configuration not stated) ?
Resp: 1

Req: Reported Imax reaches at least 50% for O=C(NCCc1ccccc1)C(c1cccs1)N(C(=O)CCl)c1cccc(Cl)c1 (configuration not stated) ?
Resp: 0
